Values were extracted from ChEMBL document CHEMBL5523719.

assay-method-text: Initial plasma concentration in Sprague-Dawley rat at 10 mg/kg, iv
Assay type: ADME, organism-based
assay-metric: C0

COc1ccc(NS(=O)(=O)c2ccc3c(c2)c2ccc(NC(=O)[C@@H](N)C(C)C)cc2n3C)c(OC)n1.Cl; 22000 ng/mL

* * *

System: L02
assay-method-text: Antiproliferation activity against human L02 cells measured after 72 hrs incubation by MTT assay
Format: functional, cell-based
settings: L02, 72 h
// NB: equality with 60 nM counts as False; only IC50 strictly below is True

COc1cc(NS(=O)(=O)c2ccc3c(c2)c2ccc(OP(=O)([O-])[O-])cc2n3C)c(OC)cc1Cl.[Na+].[Na+]; True
COc1cc(NS(=O)(=O)c2ccc3c(c2)c2ccc(N)cc2n3C)c(OC)cc1Cl; True
COc1cc(OC)c(NS(=O)(=O)c2ccc3c(c2)c2ccc(O)cc2n3C)cc1Cl; True
COc1ccc(NS(=O)(=O)c2ccc3c(c2)c2ccc(N)cc2n3C)cc1; False
COc1ccc(NS(=O)(=O)c2ccc3c(c2)c2ccc(N)cc2n3C)c(OC)n1; False
COc1cc(OC)c(NS(=O)(=O)c2ccc3c(c2)c2ccc(N)cc2n3C)c(OC)c1; True
COc1cc(NS(=O)(=O)c2ccc3c(c2)c2ccc(O)cc2n3C)cc(OC)c1OC; True
COc1ccc(/C=C\c2cc(OC)c(OC)c(OC)c2)cc1OP(=O)([O-])[O-].[Na+].[Na+] [FOSBRETABULIN DISODIUM]; False
COc1ccc(OC)c(NS(=O)(=O)c2ccc3c(c2)c2ccc(O)cc2n3C)c1; True

* * *

System: L02
assay-method-text: Antiproliferation activity against human L02 cells measured after 72 hrs incubation by MTT assay
Assay type: functional, cell-based
settings: L02, 72 h
Listing of entries alongside the reported IC50.
assay-metric: IC50 (nM)

COc1cc(NS(=O)(=O)c2ccc3c(c2)c2ccc(O)cc2n3C)c(OC)cc1Cl; 53.7
COc1cc(OC)c(NS(=O)(=O)c2ccc3c(c2)c2ccc(N)cc2n3C)cc1Cl; 18
COc1ccc(NS(=O)(=O)c2ccc3c(c2)c2ccc(N)cc2n3C)c(OC)c1; 42.2
COc1ccc(OC)c(NS(=O)(=O)c2ccc3c(c2)c2ccc(N)cc2n3C)c1; 11.6
COc1cc([C@@H]2c3cc4c(cc3[C@H](O)[C@H]3COC(=O)[C@H]23)OCO4)cc(OC)c1OC; 32.8
COc1ccc(NS(=O)(=O)c2ccc3c(c2)c2ccc(O)cc2n3C)c(OC)n1; 51.6
COc1ccc(NS(=O)(=O)c2ccc3c(c2)c2ccc(O)cc2n3C)c(OC)c1; 54.4
COc1cc(NS(=O)(=O)c2ccc3c(c2)c2ccc(N)cc2n3C)c(OC)cc1N; 30.9
Cn1c2ccc(S(=O)(=O)Nc3cccc(-c4ccn[nH]4)c3)cc2c2ccc(N)cc21; 94.5

* * *

assay-method-text: Solubility of the compound
Assay type: physicochemical
Listing of entries alongside the reported solubility.
assay-metric: solubility (µg/mL)

COc1ccc(NS(=O)(=O)c2ccc3c(c2)c2ccc(NC(=O)CN4CCCCC4)cc2n3C)c(OC)n1.Cl; 4700
COc1ccc(NS(=O)(=O)c2ccc3c(c2)c2ccc(NC(=O)[C@@H](N)CO)cc2n3C)c(OC)n1.Cl; 2000
COc1ccc(NS(=O)(=O)c2ccc3c(c2)c2ccc(NC(=O)CCN(C)C)cc2n3C)c(OC)n1.Cl; 11000

* * *

System: NCI-H460
assay-method-text: Antiproliferation activity against human NCI-H460 cells measured after 72 hrs incubation by MTT assay
Assay type: functional, cell-based
settings: NCI-H460, 72 h
// NB: equality with 30 nM counts as not fulfilled; only IC50 strictly below is fulfilled

COc1cc(NS(=O)(=O)c2ccc3c(c2)c2ccc(N)cc2n3C)c(OC)cc1Cl; fulfilled
COc1cc(OC)c(NS(=O)(=O)c2ccc3c(c2)c2ccc(O)cc2n3C)cc1Cl; fulfilled
COc1cc(NS(=O)(=O)c2ccc3c(c2)c2ccc(O)cc2n3C)c(OC)cc1Cl; fulfilled
COc1cc(NS(=O)(=O)c2ccc3c(c2)c2ccc(NC(=O)[C@@H](N)C(C)C)cc2n3C)c(OC)cc1Cl.Cl; not fulfilled
COc1ccc(NS(=O)(=O)c2ccc3c(c2)c2ccc(O)cc2n3C)c(OC)c1; not fulfilled
Cn1c2ccc(S(=O)(=O)Nc3cccc(-c4ccn[nH]4)c3)cc2c2ccc(N)cc21; not fulfilled
COc1cc(NS(=O)(=O)c2ccc3c(c2)c2ccc(O)cc2n3C)cc(OC)c1OC; not fulfilled
COc1ccc(NS(=O)(=O)c2ccc3c(c2)c2ccc(N)cc2n3C)c(OC)n1; not fulfilled
COc1ccc(NS(=O)(=O)c2ccc3c(c2)c2ccc(O)cc2n3C)c(OC)n1; not fulfilled
CN1CCN(Cc2ccc(NS(=O)(=O)c3ccc4c(c3)c3ccc(O)cc3n4C)cc2C(F)(F)F)CC1; not fulfilled
COc1cc(NS(=O)(=O)c2ccc3c(c2)c2ccc(OP(=O)([O-])[O-])cc2n3C)c(OC)cc1Cl.[Na+].[Na+]; fulfilled

* * *

assay-method-text: Solubility of the compound
Type: physicochemical
assay-metric: solubility (µg/mL)

COc1ccc(NS(=O)(=O)c2ccc3c(c2)c2ccc(NC(=O)[C@@H](N)Cc4ccc(O)cc4)cc2n3C)c(OC)n1.Cl; 2000
COc1ccc(NS(=O)(=O)c2ccc3c(c2)c2ccc(NC(=O)CCCN4CCOCC4)cc2n3C)c(OC)n1.Cl; 6800
COc1ccc(NS(=O)(=O)c2ccc3c(c2)c2ccc(NC(=O)CCN4CCOCC4)cc2n3C)c(OC)n1.Cl; 13000
COc1ccc(NS(=O)(=O)c2ccc3c(c2)c2ccc(NC(=O)CN4CCN(C)CC4)cc2n3C)c(OC)n1.Cl; 27000
COc1ccc(NS(=O)(=O)c2ccc3c(c2)c2ccc(NC(=O)[C@@H](N)C(C)C)cc2n3C)c(OC)n1.Cl; 4000
COc1ccc(NS(=O)(=O)c2ccc3c(c2)c2ccc(NC(=O)CN(C)C)cc2n3C)c(OC)n1.Cl; 25000
COc1ccc(NS(=O)(=O)c2ccc3c(c2)c2ccc(NC(=O)CN)cc2n3C)c(OC)n1.Cl; 500

* * *

Listing of entries alongside the reported pIC50.
Tested on: L02
assay-method-text: Antiproliferation activity against human L02 cells measured after 72 hrs incubation by MTT assay
Assay type: functional, cell-based
settings: L02, 72 h
pIC50: −log10 of the molar value.
assay-metric: pIC50

COc1cc(NS(=O)(=O)c2ccc3c(c2)c2ccc(NC(=O)[C@@H](N)C(C)C)cc2n3C)c(OC)cc1Cl.Cl; 7.36
COc1cc(NS(=O)(=O)c2ccc3c(c2)c2ccc(N)cc2n3C)cc(OC)c1OC; 7.68

* * *

assay-method-text: Clearance in Sprague-Dawley rat at 10 mg/kg, iv
Format: ADME, organism-based
settings: in vivo
assay-metric: clearance (mL/min/kg)

COc1ccc(NS(=O)(=O)c2ccc3c(c2)c2ccc(NC(=O)[C@@H](N)C(C)C)cc2n3C)c(OC)n1.Cl; 72.9

* * *

assay-method-text: MRT (0 to last) in Sprague-Dawley rat at 10 mg/kg, iv
Type: ADME, organism-based
settings: in vivo
assay-metric: MRT last

COc1ccc(NS(=O)(=O)c2ccc3c(c2)c2ccc(NC(=O)[C@@H](N)C(C)C)cc2n3C)c(OC)n1.Cl; 7.26 min

* * *

assay-method-text: Half life in Sprague-Dawley rat at 10 mg/kg, iv
Format: ADME, organism-based
settings: in vivo
assay-metric: half-life (min)

COc1ccc(NS(=O)(=O)c2ccc3c(c2)c2ccc(NC(=O)[C@@H](N)C(C)C)cc2n3C)c(OC)n1.Cl; 34.4

* * *

Tested on: NCI-H460
assay-method-text: Antiproliferation activity against human NCI-H460 cells measured after 72 hrs incubation by MTT assay
Assay type: functional, cell-based
settings: NCI-H460, 72 h
assay-metric: IC50 (nM)

COc1cc(OC)c(NS(=O)(=O)c2ccc3c(c2)c2ccc(N)cc2n3C)c(OC)c1; 14
COc1ccc(OC)c(NS(=O)(=O)c2ccc3c(c2)c2ccc(O)cc2n3C)c1; 12.5
COc1cc(NS(=O)(=O)c2ccc3c(c2)c2ccc(N)cc2n3C)cc(OC)c1OC; 13.1
